# Tested on: A549 NSCLC
# assay_summary: NCI tumour cell line growth inhibition, 48 h
Provide the recorded TGI for the entries that follow.

A549 NSCLC / TGI / CN1CCC(n2cnc(-c3ccc(F)cc3)c2-c2ccnc(NCCO)n2)CC1 : value?
> 25 µM

A549 NSCLC / TGI / Cc1nc2cccc(F)c2c(=O)n1C1CCCCNC1=O (stereo not given) : value?
> 10 µM

A549 NSCLC / TGI / COc1ccc(OC)c(NC(=O)C2=C(C)NC(C)=C(C(=O)Nc3cc(OC)ccc3OC)C2c2ccccc2)c1 : value?
> 100 µM

A549 NSCLC / TGI / N=c1oc2c(Cl)cc(Cl)cc2cc1C(=O)Nc1cccc2ccccc12 : value?
> 100 µM

A549 NSCLC / TGI / CCc1ccccc1NC(=O)C(=O)CC(=O)c1sc(Nc2ccccc2)nc1C : value?
> 100 µM

A549 NSCLC / TGI / COc1cccc(N=Cc2cc3cc(Br)ccc3nc2Cl)c1 : value?
> 50 µM

A549 NSCLC / TGI / CC1SC(c2ccccc2)N(CCc2cccs2)C1=O (stereo not given) : value?
15.1 µM

A549 NSCLC / TGI / CCCc1[nH]c(SCCCCCCCCSc2nc(-c3ccc(F)cc3)c(CCC)[nH]2)nc1-c1ccc(F)cc1 : value?
> 100 µM

A549 NSCLC / TGI / CCOC(=O)c1cc(NS(=O)(=O)c2ccccc2)cc(C(=O)OCC)c1 : value?
> 100 µM

A549 NSCLC / TGI / CN(C)C(=O)OC(Cn1cncn1)c1ccc(Cl)cc1Cl (stereo not given) : value?
> 100 µM
